# tested_on: human PAR-2 (hPAR-2) receptor expressed in HEK-293 T cells in an endogenous manner (Homo sapiens)
# Construct: human PAR-2 (hPAR-2) receptor expressed in HEK-293 T cells in an endogenous manner; endogenous in cells
# Sequence (P55085 26-397): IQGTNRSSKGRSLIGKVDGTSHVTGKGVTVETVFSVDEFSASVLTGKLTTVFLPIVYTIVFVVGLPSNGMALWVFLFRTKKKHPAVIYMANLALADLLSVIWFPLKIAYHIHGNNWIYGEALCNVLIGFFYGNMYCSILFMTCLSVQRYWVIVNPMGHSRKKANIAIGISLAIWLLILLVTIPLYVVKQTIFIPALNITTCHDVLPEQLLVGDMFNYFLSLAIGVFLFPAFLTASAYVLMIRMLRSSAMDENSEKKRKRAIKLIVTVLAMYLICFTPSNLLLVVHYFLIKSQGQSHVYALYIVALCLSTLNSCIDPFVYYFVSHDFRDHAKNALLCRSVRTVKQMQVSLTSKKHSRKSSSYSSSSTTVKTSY
# assay_remarks: In vitro human PAR-2 functional antagonist activity using calcium assays (Fluo4AM, FLIPR Tetra)
# test_settings: HEK-293 T cells stimulated by an EC80 of the 2-Furoyl-LIGRLO-NH2 peptide after 10 min incubation with compound; 20 concentrations, duplicate, two independent experiments
Where a name gives a salt, the structure may show the parent alone.
Recorded IC50 values for a group of compounds are listed next.

Look over these answered cases.
INSERT INTO assay_data (compound, observed_measurement) VALUES
  ('CC1(C)C(=O)NCCN1C(=O)c1ccc2c(-c3ccc(Cl)c(F)c3)cn(Cc3ccncc3)c2n1 [Example 120]', '20 to 10000 nM'),
  ('CN(C)C(=O)c1ccc(N2CCN(C(=O)c3ccc4c(-c5ccc(Cl)c(F)c5)cn(C(C)(C)C)c4n3)C(C)(C)C2)nc1 [Example 139]', '< 20 nM'),
  ('CC1(C)C(=O)NCCN1C(=O)c1ccc2c(-c3ccc(Cl)c(F)c3)cn(CC(F)(F)F)c2n1 [Example 31]', '20 to 10000 nM'),
  ('CC(C)(C)c1nn(-c2ccc(Cl)c(F)c2)c2ncc(C(=O)N3CCNC(=O)C3(C)C)cc12 [Example 80]', '20 to 10000 nM'),
  ('CC(C)Cn1cc(-c2ccccc2)c2ccc(C(=O)N3CCNC(=O)C3(C)C)nc21 [Example 49]', '20 to 10000 nM'),
  ('CC(C)Cc1nc(-c2ccc(Cl)cc2)n2ccc(C(=O)N3CCN(c4ccc(C(=O)O)cn4)CC3(C)C)cc12 [Example 219]', '20 to 10000 nM'),
  ('CC(C)(C)n1cc(-c2ccc(Cl)c(F)c2)c2ccc(C(=O)N3CCNC(=O)CC3)nc21 [Example 18]', '20 to 10000 nM'),
  ('Cc1cc(N2CCN(C(=O)c3ccc4c(-c5ccc(Cl)c(F)c5)cn(C(C)C)c4n3)C(C)(C)C2)nc(C)c1C(=O)O [Example 97]', '< 20 nM'),
  ('CC(C)Cn1cc(-c2ccc(C#N)nc2)c2ccc(C(=O)N3CCNC(=O)C3(C)C)nc21 [Example 110]', '20 to 10000 nM'),
  ('Cc1cc(N2CCN(C(=O)c3ccc4c(-c5ccc(Cl)c(F)c5)cn(CC5CCC5)c4n3)C(C)(C)C2)nc(C)c1C(=O)O [Example 171]', '< 20 nM');

Q. Can you look up the measured IC50 of CC(C)Cn1cc(N2CCCCC2)c2ccc(C(=O)N3CCNC(=O)C3(C)C)nc21 [Example 82] for me?
A. 20 to 10000 nM

Q. Query Cc1ccccc1-c1cn(CC(C)C)c2nc(C(=O)N3CCNC(=O)C3(C)C)ccc12 [Example 52] next
A. 20 to 10000 nM

Q. Same lookup for Cc1cc(C2CCN(C(=O)c3ccc4c(-c5ccc(Cl)c(F)c5)cn(C(C)(C)C)c4n3)CC2)nc(C)c1C(=O)O [Example 168] , please.
A. 20 to 10000 nM

Q. Do the same for Cc1cc(N2CCN(C(=O)c3ccc4c(-c5ccc(Cl)c(F)c5)cn(CC(C)(C)O)c4n3)C(C)(C)C2)nc(C)c1C(=O)O [Example 180] please
A. 20 to 10000 nM

Q. Same thing, different compound: Cc1cc(N2CCN(C(=O)c3ccc4c(-c5ccc(Cl)c(F)c5)cn(Cc5cccnc5)c4n3)C(C)(C)C2)nc(C)c1C(=O)O [Example 135, hydrochloride]
A. 20 to 10000 nM
